Test system: C. albicans R303
assay.text: Mouse candidiasis infection model, C. albicans density in kidneys
Type: in vivo, female CD-1 mice
assay.setup: First run, 1 mg/kg IP 2 hr after infection, kidneys at 24 hr
Catalogue of Difference from 24-hr control values

compound | readout.unit | Difference from 24-hr control
CCCCCOc1ccc(-c2ccc(-c3ccc(C(=O)NC4CC(O)C(OCCOCCOCCOCCOC)NC(=O)C5C(O)C(C)CN5C(=O)C(C(C)O)NC(=O)C(C(O)C(O)c5ccc(O)cc5)NC(=O)C5CC(O)CN5C(=O)C(C(C)O)NC4=O)cc3)cc2)cc1 (stereo not shown) | ns log10 CFU/kidneys | 0.00
CCCCCOc1ccc(-c2ccc(-c3ccc(C(=O)NC4CC(O)C(OCCCCCCOCCOCCOCCOCCOCCOCCOCCOC)NC(=O)C5C(O)C(C)CN5C(=O)C(C(C)O)NC(=O)C(C(O)C(O)c5ccc(O)cc5)NC(=O)C5CC(O)CN5C(=O)C(C(C)O)NC4=O)cc3)cc2)cc1 (stereo not shown) | ns log10 CFU/kidneys | 0.50
CCC(C)CC(C)CCCCCCCCC(=O)NC1CC(O)C(NCCNC(=O)OCCOC)NC(=O)C2C(O)CCN2C(=O)C(C(O)CCNC(=O)OCCOC)NC(=O)C(C(O)C(O)c2ccc(O)cc2)NC(=O)C2CC(O)CN2C(=O)C(C(C)O)NC1=O (stereo not shown) | ns log10 CFU/kidneys | 0.33
CCC(C)CC(C)CCCCCCCCC(=O)NC1CC(O)C(NCCNC(=O)OCCOC)NC(=O)C2C(O)CCN2C(=O)C(C(O)CCN)NC(=O)C(C(O)C(O)c2ccc(O)cc2)NC(=O)C2CC(O)CN2C(=O)C(C(C)O)NC1=O (stereo not shown) | ns log10 CFU/kidneys | −0.13
CCC(C)CC(C)CCCCCCCCC(=O)NC1CC(O)C(NCCNC(=O)CCCCCCCOCCOCCOCCOCCOCCOCCOCCOC)NC(=O)C2C(O)CCN2C(=O)C(C(O)CCNC(=O)CCCCCCCOCCOCCOCCOCCOCCOCCOCCOC)NC(=O)C(C(O)C(O)c2ccc(O)cc2)NC(=O)C2CC(O)CN2C(=O)C(C(C)O)NC1=O (stereo not shown) | ns log10 CFU/kidneys | 0.48
